FYI, the data here is from ChEMBL document CHEMBL3865787.

# TEST_NAME: Downregulation of Bcl2 expression in human HepG2 cells at IC50 after 48 hrs by ELISA
# Type: functional, cell-based
Calls of active or inactive are those of the source. The rule behind the calls is not given here.
PARAMETER: Activity

>>> measured_value("CC1=C([Se]c2ccc(NC(c3ccco3)c3nnnn3C(C)(C)C)cc2)C(=O)c2ccccc2C1=O (centres undefined)")
"Active"
>>> measured_value("CC(=O)N(c1ccc([Se]C2=CC(=O)c3ccccc3C2=O)cc1)C(C(=O)NC(C)(C)C)c1ccc(C)cc1 (centres undefined)")
"Active"
>>> measured_value("CC1=C([Se]c2ccc(NC(c3ccc(C)cc3)c3nnnn3C(C)(C)C)cc2)C(=O)c2ccccc2C1=O (centres undefined)")
"Active"
>>> measured_value("CC(C)C(Nc1ccc([Se][Se]c2ccc(NC(c3nnnn3Cc3ccccc3)C(C)C)cc2)cc1)c1nnnn1Cc1ccccc1 (centres undefined)")
"Active"

---

Reported Activity values for a set of molecules
# TEST_NAME: Antioxidant activity assessed as DPPH radical scavenging activity at 1 uM after 30 mins in absence of light by spectrophotometric analysis
# Type: functional
PARAMETER: Activity (%)

>>> measured_value("Cc1ccc(C(Nc2ccc([Se][Se]c3ccc(NC(c4ccc(C)cc4)c4nnnn4C(C)(C)C)cc3)cc2)c2nnnn2C(C)(C)C)cc1 (stereo not drawn)")
30.4
>>> measured_value("CC(C)C(Nc1ccc([Se][Se]c2ccc(NC(c3nnnn3Cc3ccccc3)C(C)C)cc2)cc1)c1nnnn1Cc1ccccc1 (stereo not drawn)")
20.5
>>> measured_value("CC(C)(C)n1nnnc1C(Nc1ccc([Se][Se]c2ccc(NC(c3ccco3)c3nnnn3C(C)(C)C)cc2)cc1)c1ccco1 (stereo not drawn)")
24

---

# TEST_NAME: Cytotoxicity against human WI38 cells assessed as reduction in cell viability after 48 hrs by MTT assay
# Type: toxicity, cell-based, WI-38
Label Y when IC50 at 48 h is strictly below 40 µM; at or above that, label N.

>>> assigned_class("CC(C)C(Nc1ccc([Se][Se]c2ccc(NC(c3nnnn3C3CCCCC3)C(C)C)cc2)cc1)c1nnnn1C1CCCCC1 (stereo not drawn)")
"N"
>>> assigned_class("CC1=C([Se]c2ccc(NC(c3ccco3)c3nnnn3C(C)(C)C)cc2)C(=O)c2ccccc2C1=O (stereo not drawn)")
"Y"
>>> assigned_class("c1coc(C(Nc2ccc([Se][Se]c3ccc(NC(c4ccco4)c4nnnn4C4CCCCC4)cc3)cc2)c2nnnn2C2CCCCC2)c1 (stereo not drawn)")
"N"
>>> assigned_class("CC1=C([Se]c2ccc(NCc3nnnn3C(C)(C)C)cc2)C(=O)c2ccccc2C1=O")
"N"
>>> assigned_class("CC1=C([Se]c2ccc(NC(c3ccc(C)cc3)c3nnnn3C(C)(C)C)cc2)C(=O)c2ccccc2C1=O (stereo not drawn)")
"Y"
>>> assigned_class("COc1ccc(Cn2nnnc2C(Nc2ccc([Se][Se]c3ccc(NC(c4ccco4)c4nnnn4Cc4ccc(OC)cc4OC)cc3)cc2)c2ccco2)c(OC)c1 (stereo not drawn)")
"N"
>>> assigned_class("CC(C)C(Nc1ccc([Se][Se]c2ccc(NC(c3nnnn3Cc3ccccc3)C(C)C)cc2)cc1)c1nnnn1Cc1ccccc1 (stereo not drawn)")
"N"
>>> assigned_class("CC(C)(C)n1nnnc1CNc1ccc([Se][Se]c2ccc(NCc3nnnn3C(C)(C)C)cc2)cc1")
"Y"

---

# TEST_NAME: Pro-oxidant activity as bleomycin-Fe2+ induced calf thymus DNA damage measured as absorbance at 2 mM after 1 hr by thiobarbituric acid-based assay
# Type: ADME
# Design: unit not given here
# EXPERIMENTAL_CONTEXT: cattle, 2000 µM
PARAMETER: Activity

>>> measured_value("CC1=C([Se]c2ccc(NC(c3ccc(C)cc3)c3nnnn3C(C)(C)C)cc2)C(=O)c2ccccc2C1=O (stereo unspecified)")
90
>>> measured_value("c1coc(C(Nc2ccc([Se][Se]c3ccc(NC(c4ccco4)c4nnnn4C4CCCCC4)cc3)cc2)c2nnnn2C2CCCCC2)c1 (stereo unspecified)")
222
>>> measured_value("CC1=C([Se]c2ccc(NCc3nnnn3C(C)(C)C)cc2)C(=O)c2ccccc2C1=O")
103
>>> measured_value("CC(C)(C)n1nnnc1CNc1ccc([Se][Se]c2ccc(NCc3nnnn3C(C)(C)C)cc2)cc1")
93
>>> measured_value("CC(C)C(Nc1ccc([Se][Se]c2ccc(NC(c3nnnn3C(C)(C)C)C(C)C)cc2)cc1)c1nnnn1C(C)(C)C (stereo unspecified)")
67
>>> measured_value("Cc1ccc(C(Nc2ccc([Se][Se]c3ccc(NC(c4ccc(C)cc4)c4nnnn4C4CCCCC4)cc3)cc2)c2nnnn2C2CCCCC2)cc1 (stereo unspecified)")
79
>>> measured_value("O=C1O[C@H]([C@@H](O)CO)C(O)=C1O")
310
>>> measured_value("COc1ccc(-n2nnnc2C(Nc2ccc([Se][Se]c3ccc(NC(c4nnnn4-c4ccc(OC)cc4)C(C)C)cc3)cc2)C(C)C)cc1 (stereo unspecified)")
77
>>> measured_value("CC1=C([Se]c2ccc(NC(c3ccco3)c3nnnn3C(C)(C)C)cc2)C(=O)c2ccccc2C1=O (stereo unspecified)")
138
>>> measured_value("COc1ccc(Cn2nnnc2C(Nc2ccc([Se][Se]c3ccc(NC(c4ccc(C)cc4)c4nnnn4Cc4ccc(OC)cc4OC)cc3)cc2)c2ccc(C)cc2)c(OC)c1 (stereo unspecified)")
130
>>> measured_value("Cc1ccc(C(Nc2ccc([Se][Se]c3ccc(NC(c4ccc(C)cc4)c4nnnn4C(C)(C)C)cc3)cc2)c2nnnn2C(C)(C)C)cc1 (stereo unspecified)")
98
